Where do these numbers come from? They come from patent US20040018971A1.

experimental-system: HLA-A*1101 (human)
protocol-text: inhibition of 125I probe peptide binding to purified HLA
measured-metric: IC50 (nM)

INSERT INTO assay_data (binder, measured) VALUES
  ('TVBAGGBAK (B at positions 3 and 7 = alpha-amino butyric acid (in place of cysteine), synthetic analog peptide; also called TVBAGGBAK) [Her2/neu.218.B3B7K9]', 29),
  ('ILWKDIFHK (synthetic peptide) [Her2/neu.167]', 19),
  ('CVNCSQFLR (synthetic peptide) [Her2/neu.528]', 194),
  ('BVNBSQFLK (B at positions 1 and 4 = alpha-amino butyric acid (in place of cysteine), synthetic analog peptide; also called BVNBSQFLK) [Her2/neu.528.B1B4K9]', 22);
